Target or test system: NRAS Q61K (Homo sapiens (Human), UniProt P01111+P62937, Q61K)
Sequence (P01111 whole entry Q61K): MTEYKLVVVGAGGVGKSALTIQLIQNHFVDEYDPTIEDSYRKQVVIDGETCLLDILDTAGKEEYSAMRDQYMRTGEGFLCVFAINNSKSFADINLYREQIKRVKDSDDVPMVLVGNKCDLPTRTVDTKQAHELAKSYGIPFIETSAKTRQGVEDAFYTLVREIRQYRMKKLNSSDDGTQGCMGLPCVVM
Sequence (P62937 whole entry): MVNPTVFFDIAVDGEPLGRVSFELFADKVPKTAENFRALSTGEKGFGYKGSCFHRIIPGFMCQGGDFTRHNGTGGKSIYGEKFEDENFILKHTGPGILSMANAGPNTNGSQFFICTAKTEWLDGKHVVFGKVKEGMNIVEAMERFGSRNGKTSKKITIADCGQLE
Test summary: Ras-Raf (BRAF RBD) disruption / FRET / MOA assay, NRAS Q61K
Format: biochemical
Condition set: NRAS Q61K; Ras-Raf disruption/FRET/MOA assay; read-out: IC50* NRAS Q61K FRET data
pIC50: −log10 of the molar value.
Property label: pIC50

Solved cases below.
* C=CC(=O)N1CC(OC[C@H](C(=O)N[C@H]2Cc3cccc(c3)-c3ccc4c(c3)c(c(-c3cccnc3[C@H](C)OC)n4CC(F)(F)F)CC(C)(C)COC(=O)[C@@H]3CCCN(N3)C2=O)C(C)C)C1 (atropisomer, axis not shown) | 5.00 to 6.00
* C=CC(=O)N1CC2(CCN2C(=O)N(C)[C@H](C(=O)N[C@H]2Cc3cccc(n3)-c3ccc4c(c3)c(c(-c3cccnc3[C@H](C)OC)n4CC)CC(C)(C)COC(=O)[C@@H]3CCCN(N3)C2=O)C(C)C)C1 (atropisomer, axis not shown) | 6.00 to 7.00
* C=CC(=O)N1CC[C@H](C(=O)N(C)C(C(=O)N[C@H]2C[C@H]3CN(CCO3)c3ccc4c(c3)c(c(-c3cccnc3[C@H](C)OC)n4CC)CC(C)(C)COC(=O)[C@@H]3CCCN(N3)C2=O)C(C)C)C1 (mixture of isomers) | < 5.00

Just so you know, measured pIC50 for C=CC(=O)N1CCO[C@H]2CN(C(=O)N(C)[C@H](C(=O)N[C@H]3CC4=NN=C(O4)c4ccc5c(c4)c(c(-c4cccnc4[C@H](C)OC)n5CC(F)(F)F)CC(C)(C)COC(=O)[C@@H]4CCCN(N4)C3=O)C(C)C)C[C@H]21 (atropisomer, axis not shown) came out at 5.00 to 6.00

###

Target or test system: KRAS WT (Homo sapiens (Human), UniProt P01116+P62937)
Sequence (P01116-2 other isoform, or with tags, fused parts or gaps, one chain of several): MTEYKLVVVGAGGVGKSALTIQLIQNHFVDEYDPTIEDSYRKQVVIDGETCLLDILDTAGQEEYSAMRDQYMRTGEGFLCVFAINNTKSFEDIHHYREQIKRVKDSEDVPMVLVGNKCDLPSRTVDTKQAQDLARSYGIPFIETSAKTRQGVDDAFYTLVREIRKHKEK
Test summary: Ras-Raf (BRAF RBD) disruption / FRET / MOA assay, KRAS WT
Assay type: biochemical
Condition set: read-out: IC50* KRAS WT FRET data
Recorded measurements of IC50, one per entry

Solved cases below.
- C=CC(=O)N1CC[C@H](C(=O)N(C)[C@H](C(=O)N[C@H]2Cc3cccc(c3)-c3ccc4c(c3)c(c(-c3cc(C5=CCN(C)CC5)cnc3[C@H](C)OC)n4CC)CC(C)(C)COC(=O)[C@@H]3CCCN(N3)C2=O)C(C)C)C1 (atropisomer, axis not shown) [Example A513]: 1 to 10 µM
- C=CC(=O)N1CC[C@H](C(=O)N(C)[C@H](C(=O)N[C@H]2Cc3cc(O)cc(c3)-c3ccc4c(c3)c(c(-c3ccccc3CCOC)n4CC)C[C@H](C)COC(=O)[C@@H]3CCCN(N3)C2=O)C(C)C)C1 [Example A215]: > 10 µM
- C=CC(=O)N1CC[C@H](C(=O)N(C)[C@H](C(=O)N[C@H]2Cc3cccc(c3)-c3ccc4c(c3)c(c(-c3cccnc3[C@H](C)OC)n4CC3COC3)CC(C)(C)COC(=O)[C@@H]3CCCN(N3)C2=O)C(C)C)C1 (atropisomer, axis not shown) [Example A481]: 1 to 10 µM

Just so you know, measured IC50 for C=CC(=O)N1C[C@@H](C)N(C(=O)N(C)[C@H](C(=O)N[C@H]2Cc3nc(cs3)-c3ccc4c(c3)c(c(-c3cccnc3[C@H](C)OC)n4CC)CC(C)(C)COC(=O)[C@@H]3CCCN(N3)C2=O)C(C)C)[C@H](C)C1 (atropisomer, axis not shown) [Example A388] came out at < 0.01 µM
